All values here come from ChEMBL document CHEMBL4513216.

# test: Toxicity liver stage against HepG2, at 10uM
# Type: cell-based
# Set-up: test concentration 10 uM, cell line HepG2-A16-CD81EGFP
# appliedConditions: human, HepG2-A16-CD81EGFP cells; read-out: INHIBITION
# Lookup of reported cytotoxicity at 10 µM keyed by entry
Express it in %; write the number only.

Here are 3 compounds together with their reported answers.
O=C(CCc1nc2cccnc2[nH]1)NCc1ccc2c(c1)OCO2	0.356
CS(=O)(=O)N[C@H]1CN(C(=O)CCc2ccc(=O)[nH]n2)C[C@@H]1C1CC1	1.56
Cc1ccc(C(N)=O)c(N2Cc3cnc(C(C)(C)C)nc3C2)n1	8.05

Specify cytotoxicity at 10 µM for CS(=O)(=O)Nc1ccc(CNC(=O)CN2CCc3ccccc32)cc1 and stop.
7.1

Specify cytotoxicity at 10 µM for CC(C)c1noc(C2CC(=O)N(CCN(C)C)C2)n1 (stereo unspecified) and stop.
-8.25

Specify cytotoxicity at 10 µM for COCC(=O)N1CCO[C@H]2[C@H](OCc3cccnc3)CC[C@@H]21 and stop.
-2.01

Specify cytotoxicity at 10 µM for c1ncn(CC2CN(CCCOc3ccc4c(c3)OCO4)CCO2)n1 (stereo unspecified) and stop.
-1.85

Specify cytotoxicity at 10 µM for CCn1cc(NC(=O)C2CCN(CC(=O)NC(C)(C)CC)CC2)cn1 and stop.
-1.01

Specify cytotoxicity at 10 µM for Cc1cccc2c1OCCCC2NCc1nnc2n1CCCCC2 (stereo unspecified) and stop.
-0.699

---

# Lookup of reported cytotoxicity at 10 µM keyed by entry
# test: Toxicity liver stage against HepG2, at 10uM
# Assay type: cell-based
# Design: test concentration 10 uM, cell line HepG2-A16-CD81EGFP
# appliedConditions: human, HepG2-A16-CD81EGFP cells; read-out: INHIBITION
Express it in %; write the number only.

Here are 8 compounds together with their reported answers.
CC(C)N1CCCn2c(nc(CNC(=O)c3nccn3C)cc2=O)C1	2.84
Cn1cc(CNC2CCCOc3c(Cl)cccc32)cn1 (configuration not stated)	10.7
CNS(=O)(=O)CC(=O)NC(C)Cc1cccc(Cl)c1 (configuration not stated)	-8.15
COc1ncc(-c2nccn2CCN(C)C)cn1	-17.4
Cc1nc(C)c(C(=O)N2CCc3[nH]nc(COc4ccccc4)c3C2)s1	-3.09
O=C(NC1CC1)N1CCN(c2cnccn2)CC1	-7.39
CCCn1ncc(CN2CCCC(C(=O)c3ccc(Cl)cc3C)C2)c1C (configuration not stated)	-6.35
CC(C)(C)OCCN(Cc1cccc(O)c1)C1CCC(O)CC1 (configuration not stated)	8.22

Specify cytotoxicity at 10 µM for CC(=O)c1ccc(NC(=O)NC(C(=O)N(C)C)C(C)C)cc1 (configuration not stated) and stop.
-5.55

Specify cytotoxicity at 10 µM for CNc1nc(CNC(=O)Nc2cccc(Cl)c2Cl)cs1 and stop.
-15.8

Specify cytotoxicity at 10 µM for CN1CCN(C(=O)c2ccc(=O)n(C)c2)Cc2ccccc21 and stop.
-10.2

Specify cytotoxicity at 10 µM for CN(C1CCN(c2ccccn2)CC1)S(=O)(=O)c1ccccc1F and stop.
14

---

# test: Toxicity liver stage against HepG2, at 10uM
# Assay type: cell-based
# Design: test concentration 10 uM, cell line HepG2-A16-CD81EGFP
# appliedConditions: human, HepG2-A16-CD81EGFP cells; read-out: INHIBITION
valueType: cytotoxicity at 10 µM (%)
Express it in %; write the number only.

COC(=O)CCCNC(=O)c1cc(COc2cncc(Cl)c2)on1	8.23
CCn1ccnc1CN1CCCC1c1noc(C2CC2)n1 (stereo not drawn)	-17.4
COCCN1CCC(NCc2cccc(F)c2)C1 (stereo not drawn)	-8.85
CC(=O)N1CCCC(c2ccnc(Nc3cnccn3)c2)C1 (stereo not drawn)	9.37
O=C1CCCC2=Nc3nonc3NC(c3cc(Cl)ccc3F)C12 (stereo not drawn)	35.5

Read the next record carefully.
Specify cytotoxicity at 10 µM for Cc1ncsc1-c1cc(C(=O)NCCO)ccn1 and stop.
-6.58

---

# test: Toxicity liver stage against HepG2, at 10uM
# Type: cell-based
# Set-up: test concentration 10 uM, cell line HepG2-A16-CD81EGFP
# appliedConditions: human, HepG2-A16-CD81EGFP cells; read-out: INHIBITION
valueType: cytotoxicity at 10 µM (%)
Express it in %; write the number only.

Here are 8 molecules together with their reported answers.
CCC(CO)NC(=O)NCc1cc(C#N)ccc1F (stereo unspecified)	-1.22
COCCN1CCC(CN(CC2CCCO2)C(=O)CNC(C)=O)CC1 (stereo unspecified)	1.48
CCc1ccc(C(=O)O)cc1S(=O)(=O)N(C)c1cccc(C)c1	-8.2
O=C(O)CCCC(=O)NCC1(O)CCN(c2ccnc3cccnc23)C1 (stereo unspecified)	5.09
COCC1CCN(C(=O)c2cccc(S(=O)(=O)NCC3(C)COC3)c2)C1 (stereo unspecified)	3.82
COC(C)(C)CNC(=O)C1CCC(=O)N(C2CCCC2)C1 (stereo unspecified)	-6.52
CC(=O)Nc1ncc(S(=O)(=O)Nc2ccccc2)s1	6.72
COc1cc(-n2cccc2)c(Cl)cc1C(=O)NS(C)(=O)=O	0.872

Specify cytotoxicity at 10 µM for Cc1nc2cc(F)cc(C(=O)N3CCN(CC(C)O)CC3)c2nc1C (stereo unspecified) and stop.
4.5

---

# test: Toxicity liver stage against HepG2, at 10uM
# Type: cell-based
# Design: test concentration 10 uM, cell line HepG2-A16-CD81EGFP
# appliedConditions: human, HepG2-A16-CD81EGFP cells; read-out: INHIBITION
# Lookup of reported cytotoxicity at 10 µM keyed by entry

NC(=O)CN1CCCC1c1ccccc1Br (configuration not stated)	4.01%
O=S(=O)(c1ccccc1)N1C[C@@H]2COC[C@]2(COCC2CC2)C1	10.2%
Cc1nc(C)c(C)c(NCc2cnn3cccnc23)n1	15.5%
O=C(CN(Cc1cccc(F)c1)CC1CCCO1)N1CCCC1 (configuration not stated)	-7.29%
CC(C)NC(=O)CC1(Cn2cnnn2)CCCCC1	9.54%

Specify cytotoxicity at 10 µM for CS(=O)(=O)c1ccc(-c2c[nH]c([C@@H]3COCCN3)n2)cc1 and stop.
5.29%

Specify cytotoxicity at 10 µM for CCOc1cc(=O)n2c(c1C(=O)OCc1ccc(F)cc1)CCCC2 and stop.
3.51%

Specify cytotoxicity at 10 µM for COc1ncccc1-c1ncccc1NC(=O)C(C)C and stop.
3.78%

Specify cytotoxicity at 10 µM for CC(CN1CCOCC1)NCc1nncn1C1CCCCC1 (configuration not stated) and stop.
1.52%

Specify cytotoxicity at 10 µM for Cc1nn(C)c2cn(C(C)C(=O)NCc3ccc(F)cc3)nc12 (configuration not stated) and stop.
9.46%

Specify cytotoxicity at 10 µM for CNS(=O)(=O)CC(=O)N(C1CCCC1)C1CC1 and stop.
-2.78%

Specify cytotoxicity at 10 µM for O=C(CCNc1ncccn1)NCCc1ccn(-c2ccccc2)n1 and stop.
0.914%

---

# Lookup of reported cytotoxicity at 10 µM keyed by entry
# test: Toxicity liver stage against HepG2, at 10uM
# Format: cell-based
# Parameters: test concentration 10 uM, cell line HepG2-A16-CD81EGFP
# appliedConditions: human, HepG2-A16-CD81EGFP cells; read-out: INHIBITION
Express it in %; write the number only.

Specify cytotoxicity at 10 µM for O=c1c2cccnc2cnn1CC(O)c1cccc(C(F)(F)F)c1 (configuration not stated) and stop.
-3.67

---

# Lookup of reported cytotoxicity at 10 µM keyed by entry
# test: Toxicity liver stage against HepG2, at 10uM
# Assay type: cell-based
# Set-up: test concentration 10 uM, cell line HepG2-A16-CD81EGFP
# appliedConditions: human, HepG2-A16-CD81EGFP cells; read-out: INHIBITION
Express it in %; write the number only.

Specify cytotoxicity at 10 µM for Cc1ccc2nc(C)cc(C(=O)NCc3csc(N(C)C)n3)c2c1 and stop.
1.21

---

# test: Toxicity liver stage against HepG2, at 10uM
# Type: cell-based
# Design: test concentration 10 uM, cell line HepG2-A16-CD81EGFP
# appliedConditions: human, HepG2-A16-CD81EGFP cells; read-out: INHIBITION
valueType: cytotoxicity at 10 µM (%)
Express it in %; write the number only.

O=C1CC(N(C(=O)c2ccc3c(c2)CCC3)C2CC2)C(=O)N1 (centres undefined)	-1.99
Nc1ncc(CN2CCC(CCC(=O)NC3CC3)CC2)cn1	11.7
CC(C)N(C)S(=O)(=O)N1CCN(Cc2ccco2)CC1	-0.796
N#Cc1nccnc1N1CCC(OCCCc2ccccc2)C1 (centres undefined)	4.31
O=C(CN1CCCCC1)Nc1ncc(Br)cc1Br	-9.58

Specify cytotoxicity at 10 µM for COc1cc2c(nn1)CCN(CC(O)COc1ccc(C#N)cc1)C2 (centres undefined) and stop.
-2.19

Specify cytotoxicity at 10 µM for Cc1nc2n(n1)CC(NCCCc1nc(-c3cccs3)no1)CC2 (centres undefined) and stop.
-4.38

Specify cytotoxicity at 10 µM for CN(C)S(=O)(=O)N1CCC(C(O)c2ccc(Cl)cc2)CC1 (centres undefined) and stop.
-21.4
